TEST_METHOD_NOTES: Cytotoxicity against human MCF7/ADR cells by WST-1 assay
Format: functional, cell-based
CONDITIONS: NCI/ADR-RES
MEASUREMENT_TYPE: IC50 (µM)

COc1cccc2c1C(=O)c1c(O)c3c(c(O)c1C2=O)C[C@@](O)(C(=O)CO)C[C@@H]3O[C@H]1C[C@H](N)[C@H](O)[C@H](C)O1 83.2
CC[C@@]1(O)C(=O)OCc2c1cc1n(c2=O)Cc2cc3ccccc3nc2-1 0.8
CC(=O)OC[C@@]1(C)CCC[C@]2(C)[C@@H]1C[C@@H](O)[C@@]13C[C@H](CC[C@@H]21)[C@@](O)(CC[C@@]1(O)C(=O)[C@]24C[C@@H]1CC[C@H]2[C@]1(C)CCC[C@](C)(COC(C)=O)[C@H]1C[C@H]4O)C3=O 18.9

These entries and their values trace back to ChEMBL document CHEMBL1938248.
